Kd: recorded values
Experimental target: T1, recombinant human CD14 (B294801, histidine tagged) (Homo sapiens, UniProt P08571)
T1 construct: His; purchased Shanghai BaiYing Biotechnology Co., Ltd B294801 (Batch number 20200518A22)
T1 sequence (P08571 20-345): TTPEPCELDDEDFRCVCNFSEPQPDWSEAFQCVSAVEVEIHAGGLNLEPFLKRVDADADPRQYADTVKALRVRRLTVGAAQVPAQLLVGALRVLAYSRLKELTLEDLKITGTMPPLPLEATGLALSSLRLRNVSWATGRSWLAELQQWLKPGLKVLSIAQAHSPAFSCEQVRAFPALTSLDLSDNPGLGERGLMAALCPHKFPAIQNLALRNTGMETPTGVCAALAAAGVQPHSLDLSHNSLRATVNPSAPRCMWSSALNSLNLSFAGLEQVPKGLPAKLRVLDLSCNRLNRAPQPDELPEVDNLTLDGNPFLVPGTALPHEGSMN
Experiment description: Biacore 8K kinetic and affinity test of humanized antibodies (Example 8)
Assay type: binding
Experimental setup: Biacore 8K, KD=koff/kon, analyte B294801 0.78125-25 nM, capture 1 μg/mL
Return type: number; implicit unit nM.

Please fill in: Kd reported for D6DD3D016: humanized anti-CD14 antibody; VH SEQ ID NO: 61, VL SEQ ID NO: 63 (antibody, V domains shown) VH: QVQLQESGPGLVKPSQTLSLTCTVSGYSITSDSAWNWIRQPPGKGLEWIGYISYSGSTSYNPSLKSRVTISRDTSKNQFSLKLSSVTAADTAVYYCVRGLRFAYWGQGTLVTVSS VL: DIQLTQSPSSLSASVGDRVTITCRASESVDSYVNSFLHWYQQKPGKAPKLLIYRASNLQSGVPSRFSGSGSRTDFTLTISSLQPEDVATYYCQQSNEDPYTFGQGTKLEIK = 0.672

Given item D6DD3D003: humanized anti-CD14 antibody; VH SEQ ID NO: 9, VL SEQ ID NO: 11 (antibody, V domains shown) VH: QVQLQESGPGLVKPSETLSLTCTVSGGSISSDSAWNWIRQPPGKGLEWIGYISYSGSTSYNPSLKSRVTISRDTSKNQFSLKLSSVTAADTAVYYCVRGLRFAYWGQGTLVTVSS VL: EIVLTQSPATLSLSPGERATLSCRASESVDSYVNSFLHWYQQKPGQAPRLLIYRASNLQSGIPARFSGSGSRTDFTLTISSLEPEDVAVYYCQQSNEDPYTFGQGTKLEIK , the value recorded as its Kd is 1.62
